assay_target: Human 5-lipoxygenase (Homo sapiens)
Construct: purchased Cayman 60402; host or cells: insect cells
Sequence (P09917 whole entry): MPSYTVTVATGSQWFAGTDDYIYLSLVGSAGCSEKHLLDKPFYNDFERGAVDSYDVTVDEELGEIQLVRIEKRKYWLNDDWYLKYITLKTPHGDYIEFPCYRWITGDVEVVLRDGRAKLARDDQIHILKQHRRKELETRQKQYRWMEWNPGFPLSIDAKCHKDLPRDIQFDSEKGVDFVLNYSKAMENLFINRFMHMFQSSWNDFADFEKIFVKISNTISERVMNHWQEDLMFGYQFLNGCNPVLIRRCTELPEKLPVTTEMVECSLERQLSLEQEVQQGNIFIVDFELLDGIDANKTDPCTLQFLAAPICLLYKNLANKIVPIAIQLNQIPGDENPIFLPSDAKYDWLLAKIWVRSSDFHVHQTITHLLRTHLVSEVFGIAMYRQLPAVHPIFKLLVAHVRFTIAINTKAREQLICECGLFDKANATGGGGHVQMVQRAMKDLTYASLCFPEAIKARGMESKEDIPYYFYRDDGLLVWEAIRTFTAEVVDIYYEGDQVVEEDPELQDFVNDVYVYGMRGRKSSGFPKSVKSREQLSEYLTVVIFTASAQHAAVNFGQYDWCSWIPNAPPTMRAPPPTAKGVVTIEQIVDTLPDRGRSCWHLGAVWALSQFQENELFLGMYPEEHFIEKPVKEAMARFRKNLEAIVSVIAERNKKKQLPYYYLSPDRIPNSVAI
experimental_protocol: Activity of compounds against 5-LO enzyme (LTB4 measurement and/or fluorescence method)
Format: biochemical
particulars: 5-LO, single concentration of 10 uM in duplicate
Protocol: The activity of compounds against 5-LO were determined by measuring LTB4 (leukotriene B4) levels and/or by a fluorescence method. Both approaches are outlined in more detail below; […] Relative quantification of LTB4 and LTB4-d4 (Internal Standard) was done using multi reaction monitoring (MRM) of the transitions of m/z 335→195 for LTB4, 339→197 for LTB4-d4 in electrospray ionization (ESI) negative mode. […]
Assign inhibition at 10 µM to each entry below.

Field inhibition at 10 µM (entry CCC1=C(C(=O)NCc2ccc(N3CCC(C)(C)CC3)cc2)N2C=CC(Cl)=CC2N1 (centres unmarked) [compound 211] ) reads > 69%

Field inhibition at 10 µM (entry CCc1nc2ccc(Cl)cn2c1C(=O)NCc1ccc2oc(-c3ccc(F)cc3)nc2c1 [compound 258] ) reads < 40%

Field inhibition at 10 µM (entry C=C1CCN(c2ccc(CNC(=O)c3c(CC)nc4cc(Cl)ccn34)cc2)CC1 [compound 218] ) reads 40 to 69%

Field inhibition at 10 µM (entry CCc1nc2cc(Cl)ccn2c1C(=O)NCc1ccc(N2CCC(COc3ccc(OC(F)(F)F)cc3)CC2)cc1 [compound 214] ) reads < 40%

Field inhibition at 10 µM (entry CCc1nc2ccc(Cl)cn2c1C(=O)NCc1ccc(N2CCOCC2)cc1 [compound 64] ) reads < 40%

Field inhibition at 10 µM (entry CCc1nc2ccc(Cl)cn2c1CNCc1ccc(N2CCC(OCc3ccccc3)CC2)cc1 [compound 341] ) reads 40 to 69%

Field inhibition at 10 µM (entry CCc1nc2ccc(Cl)cn2c1C(=O)NCc1ccc(N2CCC(Oc3ccc(OC(F)(F)F)cc3)CC2)cc1 [compound 122] ) reads 40 to 69%

Field inhibition at 10 µM (entry CCc1nc2cc(Cl)ccn2c1C(=O)NCc1ccc(N2CCCCC2)cc1 [compound 89] ) reads < 40%

Field inhibition at 10 µM (entry CCc1nc2cc(Cl)ccn2c1C(=O)NCc1ccc(Oc2ccc(F)cc2)nc1 [compound 188] ) reads 40 to 69%

Field inhibition at 10 µM (entry CCc1nc2ccc(Cl)cn2c1CNCc1ccc(N2CCC(O)CC2)cc1 [compound 340] ) reads < 40%

Field inhibition at 10 µM (entry CCc1nc2ccc(Br)cn2c1C(=O)NCc1ccc(N2CCOCC2)cc1 [compound 240] ) reads < 40%

Field inhibition at 10 µM (entry CCc1nc2ccc(Cl)cn2c1C(=O)NCc1ccc(N2CCCCC2)cc1 [compound 74] ) reads < 40%

Field inhibition at 10 µM (entry Cc1nc2ccc(Cl)cn2c1C(=O)NCc1ccc(-c2ccccc2)cc1 [compound 43] ) reads < 40%

Field inhibition at 10 µM (entry CCc1nc2ccc(C(F)(F)F)cn2c1C(=O)NCc1ccc(N2CCOCC2)cc1 [compound 273] ) reads < 40%

Field inhibition at 10 µM (entry CCc1nc2ccc(Cl)cn2c1C(=O)NCc1ccc(N2CCC(OCc3ccc(F)cc3)CC2)cc1 [compound 300] ) reads < 40%

Field inhibition at 10 µM (entry CCc1nc2ccc(Cl)cn2c1C(=O)NCc1ccc(N2CCC(COc3ccc(F)cc3)CC2)cc1 [compound 244] ) reads 40 to 69%

Field inhibition at 10 µM (entry CCOC(=O)c1c(C)nc2ccccn12 [compound 1] ) reads < 40%
